EXPERIMENTAL SYSTEM: T1, human GIP receptor (human, UniProt P48546 22-466)
T1 sequence (looked up): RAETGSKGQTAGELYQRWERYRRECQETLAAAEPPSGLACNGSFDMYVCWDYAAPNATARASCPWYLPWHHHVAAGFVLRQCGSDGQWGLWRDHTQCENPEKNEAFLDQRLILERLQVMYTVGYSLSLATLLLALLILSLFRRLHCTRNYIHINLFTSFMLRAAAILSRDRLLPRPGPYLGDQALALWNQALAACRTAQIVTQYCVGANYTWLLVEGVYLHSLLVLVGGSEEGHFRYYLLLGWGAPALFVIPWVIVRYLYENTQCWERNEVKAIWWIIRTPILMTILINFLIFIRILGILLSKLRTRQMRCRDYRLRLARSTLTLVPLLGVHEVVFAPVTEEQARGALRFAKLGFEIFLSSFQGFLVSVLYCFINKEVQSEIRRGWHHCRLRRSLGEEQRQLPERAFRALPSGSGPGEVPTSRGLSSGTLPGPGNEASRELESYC
ASSAY PROCEDURE: cell-based or functional assay
Label YES when EC50, cAMP is strictly below 0.03 nM; otherwise label NO.

[
  {
    "BINDER": "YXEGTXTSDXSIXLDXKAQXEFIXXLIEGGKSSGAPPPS (Aib2, αMeF(2F)6, 4CPhe10, αMeL13, Orn16, Aib20, D-Glu24, αMeY25, K17 and K31: K(AEEA2-(γ-Glu)-CO-(CH2)12-CO2H), C-terminal NH2) [Example 96]",
    "LABEL VALUE": "NO"
  },
  {
    "BINDER": "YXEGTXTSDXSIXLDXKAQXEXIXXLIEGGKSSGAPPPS (Aib2, αMeF(2F)6, 4Pal10, αMeL13, Orn16, Aib20, ChA22, D-Glu24, αMeY25, K17 and K31: K(AEEA2-(γ-Glu)-CO-(CH2)12-CO2H), C-terminal NH2) [Example 148]",
    "LABEL VALUE": "YES"
  },
  {
    "BINDER": "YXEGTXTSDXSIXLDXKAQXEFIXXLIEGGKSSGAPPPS (Aib2, αMeF(2F)6, ChG10, αMeL13, Orn16, Aib20, D-Glu24, αMeY25, K17 and K31: K(AEEA2-(γ-Glu)-CO-(CH2)12-CO2H), C-terminal NH2) [Example 97]",
    "LABEL VALUE": "YES"
  },
  {
    "BINDER": "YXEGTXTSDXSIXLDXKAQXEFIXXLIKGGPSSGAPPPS (Aib2, αMeF(2F)6, 4Pal10, αMeL13, Orn16, Aib20, D-Glu24, αMeY25, K17 and K28: K(AEEA2-(γ-Glu)-(10-(4-carboxyphenoxy)decanoyl)), C-terminal NH2) [Example 129]",
    "LABEL VALUE": "YES"
  },
  {
    "BINDER": "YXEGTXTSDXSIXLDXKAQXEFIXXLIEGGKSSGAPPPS (Aib2, αMeF(2F)6, 4Pal10, αMeL13, Orn16, Aib20, D-Glu24, αMeY25, K17 and K31: K(AEEA2-(γ-Glu)-(7-(4-carboxyphenoxy)heptanoyl)), C-terminal NH2) [Example 125]",
    "LABEL VALUE": "NO"
  }
]

Attention now shifts to the item below.
In: Please check: EC50, cAMP for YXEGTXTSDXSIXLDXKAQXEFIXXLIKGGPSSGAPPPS (Aib2, αMeF(2F)6, 4Pal10, αMeL13, Orn16, Aib20, D-Glu24, αMeY25, K17 and K28: K(AEEA2-(γ-Glu)-CO-(CH2)12-CO2H), C-terminal NH2) [Example 17] , strictly under 0.03 nM or not?
Out: YES

The origin of these recorded values is patent US20230265151A1.
